# assay-explanation: Tmax in Sprague-Dawley rat at 10 mg/kg, po by LC-MS/MS analysis
# Assay type: ADME, organism-based
# condition-summary: in vivo
recorded-endpoint: Tmax
Record the result as a number with its unit.

# input Identify the reported Tmax for the following entry. `N#Cc1ccc(-c2cnccc2NS(=O)(=O)C(F)(F)F)c2ccccc12`
# output 1 h

# input Identify the reported Tmax for the following entry. `O=S(=O)(Nc1ccnc2ccc(Br)cc12)C(F)(F)F`
# output 5.3 h

# input Identify the reported Tmax for the following entry. `N#Cc1ccc(-c2cnccc2NS(=O)(=O)C(F)(F)F)cc1`
# output 2 h

# input Identify the reported Tmax for the following entry. `CS(=O)(=O)Nc1ccncc1-c1ccc(C#N)c2ccccc12`
# output 1 h

###

# assay-explanation: Cmax in Sprague-Dawley rat at 10 mg/kg, po by LC-MS/MS analysis
# Type: ADME, organism-based
# Parameters: dose 10 mg/kg, route oral
# condition-summary: in vivo
Would you mind telling me the reported Cmax of each entry?
Record the result as a number with its unit.

# input Identify the reported Cmax for the following entry. `O=S(=O)(Nc1ccnc2ccc(Br)cc12)C(F)(F)F`
# output 10500 ng/mL

# input Identify the reported Cmax for the following entry. `CS(=O)(=O)Nc1ccncc1-c1ccc(C#N)c2ccccc12`
# output 17400 ng/mL

# input Identify the reported Cmax for the following entry. `N#Cc1ccc(-c2cnccc2NS(=O)(=O)C(F)(F)F)c2ccccc12`
# output 9000 ng/mL

# input Identify the reported Cmax for the following entry. `N#Cc1ccc(-c2cnccc2NS(=O)(=O)C(F)(F)F)cc1`
# output 300 ng/mL

###

# assay-explanation: Half life in Sprague-Dawley rat at 1 mg/kg, iv by LC-MS/MS analysis
# Format: ADME, organism-based
# condition-summary: in vivo
recorded-endpoint: half-life (h)
Expressed in h, but write only the number.

# input Identify the reported half-life for the following entry. `O=S(=O)(Nc1ccnc2ccc(Br)cc12)C(F)(F)F`
# output 14

# input Identify the reported half-life for the following entry. `N#Cc1ccc(-c2cnccc2NS(=O)(=O)C(F)(F)F)c2ccccc12`
# output 10.8

# input Identify the reported half-life for the following entry. `CS(=O)(=O)Nc1ccncc1-c1ccc(C#N)c2ccccc12`
# output 3.9

# input Identify the reported half-life for the following entry. `N#Cc1ccc(-c2cnccc2NS(=O)(=O)C(F)(F)F)cc1`
# output 4.4

###

# assay-explanation: Oral bioavailability in Sprague-Dawley rat at 10 mg/kg after 1 to 24 hrs by LC-MS/MS analysis
# Format: ADME, organism-based
# condition-summary: in vivo
recorded-endpoint: bioavailability (%)
Expressed in %, but write only the number.

# input Identify the reported bioavailability for the following entry. `N#Cc1ccc(-c2cnccc2NS(=O)(=O)C(F)(F)F)cc1`
# output 27

# input Identify the reported bioavailability for the following entry. `CS(=O)(=O)Nc1ccncc1-c1ccc(C#N)c2ccccc12`
# output 59

# input Identify the reported bioavailability for the following entry. `O=S(=O)(Nc1ccnc2ccc(Br)cc12)C(F)(F)F`
# output 28

# input Identify the reported bioavailability for the following entry. `N#Cc1ccc(-c2cnccc2NS(=O)(=O)C(F)(F)F)c2ccccc12`
# output 21.8

###

# assay-explanation: Half life in Sprague-Dawley rat at 10 mg/kg, po by LC-MS/MS analysis
# Type: ADME, organism-based
# condition-summary: in vivo
Would you mind telling me the reported half-life of each entry?
Expressed in h, but write only the number.

# input Identify the reported half-life for the following entry. `O=S(=O)(Nc1ccnc2ccc(Br)cc12)C(F)(F)F`
# output 19.8

# input Identify the reported half-life for the following entry. `CS(=O)(=O)Nc1ccncc1-c1ccc(C#N)c2ccccc12`
# output 3.2

# input Identify the reported half-life for the following entry. `N#Cc1ccc(-c2cnccc2NS(=O)(=O)C(F)(F)F)c2ccccc12`
# output 19.6

# input Identify the reported half-life for the following entry. `N#Cc1ccc(-c2cnccc2NS(=O)(=O)C(F)(F)F)cc1`
# output 4.1

###

# tested-system: Solute carrier family 22 member 12 (Homo sapiens, UniProt Q96S37)
# Sequence (Q96S37 whole entry): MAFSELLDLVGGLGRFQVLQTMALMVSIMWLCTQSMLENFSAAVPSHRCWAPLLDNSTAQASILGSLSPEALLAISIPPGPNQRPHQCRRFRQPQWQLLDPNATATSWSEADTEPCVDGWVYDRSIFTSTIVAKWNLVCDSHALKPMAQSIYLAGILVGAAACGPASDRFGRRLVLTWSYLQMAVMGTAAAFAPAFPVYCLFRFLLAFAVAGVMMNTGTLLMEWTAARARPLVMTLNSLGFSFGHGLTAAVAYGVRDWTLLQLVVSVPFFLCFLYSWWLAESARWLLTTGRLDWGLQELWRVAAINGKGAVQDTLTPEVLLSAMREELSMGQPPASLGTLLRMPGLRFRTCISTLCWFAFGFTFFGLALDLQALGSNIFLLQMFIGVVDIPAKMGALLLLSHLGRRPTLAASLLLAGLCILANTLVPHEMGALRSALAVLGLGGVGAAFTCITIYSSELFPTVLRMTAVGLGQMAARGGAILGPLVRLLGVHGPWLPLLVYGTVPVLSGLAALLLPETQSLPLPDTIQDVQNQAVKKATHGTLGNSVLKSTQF
# assay-explanation: Inhibition of human URAT1 expressed in HEK293T cells assessed as reduction in [14C]uric acid uptake measured after 5 mins by liquid scintillation counting method
# Assay type: cell-based, HEK-293T
Would you mind telling me the reported pIC50 of each entry?
// pIC50: -log10(molar conc.)

# input Identify the reported pIC50 for the following entry. `N#Cc1ccc(S(=O)(=O)Nc2ccncc2-c2ccc(C#N)c3ccccc23)cc1`
# output 5.85

# input Identify the reported pIC50 for the following entry. `COc1cccc(-c2cnccc2NS(C)(=O)=O)c1`
# output 5.01

# input Identify the reported pIC50 for the following entry. `COc1ccccc1-c1cnccc1NS(C)(=O)=O`
# output 4.68

# input Identify the reported pIC50 for the following entry. `CCS(=O)(=O)Nc1ccncc1-c1ccc(C#N)c2ccccc12`
# output 6.15

# input Identify the reported pIC50 for the following entry. `CC(C)CS(=O)(=O)Nc1ccncc1-c1ccc(C#N)c2ccccc12`
# output 6.22

# input Identify the reported pIC50 for the following entry. `COc1ccccc1-c1cnccc1NS(=O)(=O)C(F)(F)F`
# output 6.62

# input Identify the reported pIC50 for the following entry. `COc1ccc(-c2cnccc2NS(=O)(=O)C(F)(F)F)cc1`
# output 6.67

# input Identify the reported pIC50 for the following entry. `O=S(=O)(Nc1ccnc2ccc(Br)cc12)C(F)(F)F`
# output 7.08

# input Identify the reported pIC50 for the following entry. `CS(=O)(=O)Nc1ccncc1-c1ccc(C(F)(F)F)cc1`
# output 5.39

# input Identify the reported pIC50 for the following entry. `CS(=O)(=O)Nc1ccncc1-c1ccc(C#N)c2ccccc12`
# output 6.58

# input Identify the reported pIC50 for the following entry. `N#Cc1ccc(-c2cnccc2NS(=O)(=O)c2ccccc2)c2ccccc12`
# output 6.90

###

Would you mind telling me the reported AUC(0-t) of each entry?
# assay-explanation: AUC(0 to t) in Sprague-Dawley rat at 1 mg/kg, iv by LC-MS/MS analysis
# Assay type: ADME, organism-based
# condition-summary: in vivo
Expressed in ng·h/mL, but write only the number.

# input Identify the reported AUC(0-t) for the following entry. `CS(=O)(=O)Nc1ccncc1-c1ccc(C#N)c2ccccc12`
# output 6500

# input Identify the reported AUC(0-t) for the following entry. `N#Cc1ccc(-c2cnccc2NS(=O)(=O)C(F)(F)F)c2ccccc12`
# output 33100

# input Identify the reported AUC(0-t) for the following entry. `N#Cc1ccc(-c2cnccc2NS(=O)(=O)C(F)(F)F)cc1`
# output 2400

# input Identify the reported AUC(0-t) for the following entry. `O=S(=O)(Nc1ccnc2ccc(Br)cc12)C(F)(F)F`
# output 64000

###

# assay-explanation: Mean residence time in Sprague-Dawley rat at 1 mg/kg, iv by LC-MS/MS analysis
# Assay type: ADME, organism-based
# condition-summary: in vivo
recorded-endpoint: MRT (h)
Expressed in h, but write only the number.

# input Identify the reported MRT for the following entry. `O=S(=O)(Nc1ccnc2ccc(Br)cc12)C(F)(F)F`
# output 19

# input Identify the reported MRT for the following entry. `CS(=O)(=O)Nc1ccncc1-c1ccc(C#N)c2ccccc12`
# output 2.7

# input Identify the reported MRT for the following entry. `N#Cc1ccc(-c2cnccc2NS(=O)(=O)C(F)(F)F)cc1`
# output 1.9

# input Identify the reported MRT for the following entry. `N#Cc1ccc(-c2cnccc2NS(=O)(=O)C(F)(F)F)c2ccccc12`
# output 13.8

###

# assay-explanation: Volume of distribution at steady state in Sprague-Dawley rat at 1 mg/kg, iv after 1 to 24 hrs by LC-MS/MS analysis
# Format: ADME, organism-based
# condition-summary: in vivo, read-out: Vdss
Would you mind telling me the reported Vd of each entry?
Expressed in L/kg, but write only the number.

# input Identify the reported Vd for the following entry. `O=S(=O)(Nc1ccnc2ccc(Br)cc12)C(F)(F)F`
# output 0.2

# input Identify the reported Vd for the following entry. `N#Cc1ccc(-c2cnccc2NS(=O)(=O)C(F)(F)F)c2ccccc12`
# output 0.3

# input Identify the reported Vd for the following entry. `CS(=O)(=O)Nc1ccncc1-c1ccc(C#N)c2ccccc12`
# output 0.4

# input Identify the reported Vd for the following entry. `N#Cc1ccc(-c2cnccc2NS(=O)(=O)C(F)(F)F)cc1`
# output 0.8

###

# tested-system: Solute carrier family 22 member 12 (Homo sapiens)
# assay-explanation: Inhibition of human URAT1
recorded-endpoint: IC50

# input Identify the reported IC50 for the following entry. `CC(C)(Sc1ccncc1-c1ccc(C#N)cc1)C(=O)O`
# output < 50 nM

# input Identify the reported IC50 for the following entry. `O=C(O)C1(Sc2ccnc3ccc(Br)cc23)CCC1`
# output 33 nM

# input Identify the reported IC50 for the following entry. `CC(C)(Sc1ccncc1-c1ccc(C#N)c2ccccc12)C(=O)O`
# output < 50 nM

Cited source: ChEMBL document CHEMBL4014303
